Assay: p53 small molecule agonists, cell-based qHTS assay with human liver microsomes: qHTS cell viability counter screen (AID 1963579); note: % is set by controls: 0 for no effect and ±100 for the full control effect; nearly all actives have a fitted effect of over 45% in size
Conditions: p53RE-bla HCT-116 viability, ATP luminescence, 16 h, HLM; series mostly up to 66 µM
Results filed as inconclusive are left out. The source made the active and inactive calls. Calls come from the whole dose curve.
Listed next: entries and their corresponding activity change, negative = cytotoxicity.

# molecule, activity change, negative = cytotoxicity
measured = [
    ("O=C(O)O", "-18.2% [at 5.99 µM] (inactive)"),
    ("O=CO", "-2.15% [at 5.99 µM] (inactive)"),
    ("Cc1cc(=O)c2c(O)c3c(O)cc(=O)c4c3c3c(cc(O)c1c23)C(C)(C)C=4O", "-4.38% [at 13.5 µM] (inactive)"),
    ("CCN1/C(=C/C=C/c2sc3ccccc3[n+]2CC)Sc2ccccc21", "8.44% [at 13.5 µM] (inactive)"),
    ("N=C(N)N1CCc2ccccc2C1", "-1.79% [at 5.99 µM] (inactive)"),
    ("C=CCCCCCCCCCCCCCC", "3.4% [at 13.5 µM] (inactive)"),
    ("CN(C)C(=O)NC1(c2ccccc2)CCN(CCC[C@]2(c3ccc(Cl)c(Cl)c3)CCCN(C(=O)c3ccccc3)C2)CC1", "-5.88% [at 13.5 µM] (inactive)"),
    ("CCCC(=O)O[C@]1(C(=O)COC(=O)CC)CC[C@H]2[C@@H]3CCC4=CC(=O)CC[C@]4(C)[C@H]3[C@@H](O)C[C@@]21C", "0.226% [at 13.5 µM] (inactive)"),
    ("c1ccc2sc(SSc3nc4ccccc4s3)nc2c1", "-2.64% [at 13.5 µM] (inactive)"),
    ("CCCCCCCCCCCCCCCCCBr", "5.38% [at 13.5 µM] (inactive)"),
    ("C[C@@H]1CN(c2c(F)c(F)c3c(=O)c(C(=O)O)cn(C4CC4)c3c2F)C[C@H](C)N1", "0.644% [at 13.5 µM] (inactive)"),
    ("NC(Cc1ccc(F)cc1)C(=O)O (centres undefined)", "3.36% [at 5.99 µM] (inactive)"),
    ("CN1CCN(c2cc3c(nn2)Oc2ccccc2N3C)CC1", "-6.1% [at 13.5 µM] (inactive)"),
    ("NC(N)=NCCC[C@H](N)C(=O)O", "-0.294% [at 5.99 µM] (inactive)"),
    ("O=C(O)c1ccccc1Nc1cc(Cl)ccc1C(=O)O", "-16.4% [at 13.5 µM] (inactive)"),
    ("Cc1[nH]c(C)c(Cl)c(=O)c1Cl", "-0.426% [at 13.5 µM] (inactive)"),
    ("COC=O", "-1.32% [at 5.99 µM] (inactive)"),
    ("Nc1ccc2c(c1)CN1C(=O)c3ccccc3C1=N2", "-28.3% [at 13.5 µM] (inactive)"),
    ("NC[C@H]1O[C@H](O[C@H]2[C@H](O)[C@@H](O[C@H]3O[C@H](CO)[C@@H](O)[C@H](N)[C@H]3O)[C@H](N)C[C@@H]2N)[C@H](O)[C@@H](O)[C@@H]1O", "4.31% [at 5.99 µM] (inactive)"),
    ("O=C(O)CN(CCOCCOCCN(CC(=O)O)CC(=O)O)CC(=O)O", "0.622% [at 0.249 µM] (inactive)"),
    ("CCCCCCCCCCCCCCCCN(C)C", "-6.23% [at 5.99 µM] (inactive)"),
    ("C=C(C)C(=O)OCCCCCCCCCCCCCCCCCC", "-5.03% [at 13.5 µM] (inactive)"),
    ("Cn1ccc2cc3c(cc21)CCN3C(=O)Nc1cccnc1", "-7.75% [at 13.5 µM] (inactive)"),
    ("COc1cc2ncnc(Nc3cccc(Cl)c3)c2cc1OC", "-15.6% [at 13.5 µM] (inactive)"),
]

----------
Listed next: entries and their corresponding activity, positive = activation.
Assay: Nuclear factor erythroid 2-related factor 2/antioxidant responsive element (Nrf2/ARE) small molecule agonists: luciferase reporter gene qHTS assay in human keratinocytes (AID 1919969); note: % is set by controls: 0 for no effect and ±100 for the full control effect; nearly all actives have a fitted effect of over 35% in size
Settings: KeratinoSens HaCaT ARE-luciferase, luminescence, 24 h; series mostly up to 92.4 µM
Records with an inconclusive call do not appear. The source made the active and inactive calls. Calls come from the whole dose curve.
measurement.type: activity, positive = activation

# compound, endpoint.value
records = [
    ("Cn1ccc2cc3c(cc21)CCN3C(=O)Nc1cccnc1", "26.3% [at 19 µM] (inactive)"),
    ("Nc1ccc(/C=C/c2ccc(N)cc2S(=O)(=O)O)c(S(=O)(=O)O)c1", "-0.938% [at 0.349 µM] (inactive)"),
    ("CC(CSC(=O)c1ccccc1)C(=O)N1C[C@@H](Sc2ccccc2)C[C@H]1C(=O)O (stereo partly specified)", "-3.94% [at 19 µM] (inactive)"),
    ("C=C(C)C(=O)OCCCCCCCCCCCCCCCCCC", "-9.09% [at 19 µM] (inactive)"),
    ("CCCCCCCCCCCCCCCCCBr", "-1.2% [at 19 µM] (inactive)"),
    ("CCCCCCCCCCCCCCCCCCCl", "-2.4% [at 8.39 µM] (inactive)"),
]

----------
Target: 5-hydroxytryptamine receptor 2A (Homo sapiens) (UniProt P28223)
Sequence (P28223 whole entry, looked up): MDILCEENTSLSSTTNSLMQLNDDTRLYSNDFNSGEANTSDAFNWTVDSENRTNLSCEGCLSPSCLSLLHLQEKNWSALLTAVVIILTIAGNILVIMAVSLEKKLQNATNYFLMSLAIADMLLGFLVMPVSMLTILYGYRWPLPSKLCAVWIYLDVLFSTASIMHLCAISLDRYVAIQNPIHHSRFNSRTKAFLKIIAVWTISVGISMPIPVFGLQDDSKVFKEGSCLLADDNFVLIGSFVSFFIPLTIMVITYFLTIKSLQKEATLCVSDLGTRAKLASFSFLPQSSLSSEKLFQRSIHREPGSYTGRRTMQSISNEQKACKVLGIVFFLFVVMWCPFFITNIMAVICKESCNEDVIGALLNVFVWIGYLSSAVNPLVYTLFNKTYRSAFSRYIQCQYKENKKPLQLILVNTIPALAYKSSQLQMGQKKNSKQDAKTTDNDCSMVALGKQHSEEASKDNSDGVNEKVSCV
Assay: 5-hydroxytryptamine receptor 2A (HTR2A) small molecule agonists, cell-based qHTS assay (AID 1963587); note: nearly all actives have a fitted effect of over 30% in size
Settings: HTR2A-CHO cells, calcium flux fluorescence, agonist mode; series mostly up to 76.8 µM
Records with an inconclusive call do not appear. The source made the active and inactive calls. Calls come from the whole dose curve.
Labels: class 1 for active, class 0 for inactive

# compound, assigned.label
rows = [
    ("Oc1ccccc1F", "class 0"),
    ("COc1ccc(CCO)cc1", "class 0"),
    ("CC/C=C\\CCOC(C)OCC (stereo unspecified)", "class 0"),
    ("O=C(O)C(=O)Cc1ccccc1", "class 0"),
    ("CCCOc1sc(C(=O)N2CCC(c3cc(CN)ccc3F)CC2)c(C)c1Br", "class 1"),
    ("CCOC(=O)CC(=O)c1ccccc1", "class 0"),
    ("O=S(=O)(O)SSS(=O)(=O)O", "class 0"),
    ("CC/C=C\\CC/C=C/CO", "class 0"),
    ("CC1(CN2CCC(n3c(=O)[nH]c4ccccc43)CC2)OCc2ccccc2-n2cccc21 (stereo unspecified)", "class 0"),
    ("CC1=C(Br)C(=O)C(Br)=C/C1=C(/c1ccccc1S(=O)(=O)O)c1cc(Br)c(O)c(Br)c1C", "class 0"),
    ("CCO[C@H](Cc1ccc(OCCc2ccc(OS(C)(=O)=O)cc2)cc1)C(=O)O", "class 0"),
    ("O=C1NCCN1CCN1CCC(c2cn(-c3ccc(F)cc3)c3ccc(Cl)cc23)CC1", "class 0"),
    ("Cc1cccc(NC(=S)N(C)C)c1", "class 0"),
    ("C=C(C)[C@@H]1CC=C(C)CC1", "class 0"),
    ("CCCCCCCCCCCCCC[P+](CCCC)(CCCC)CCCC (tested in a mixture with another compound)", "class 0"),
    ("Cc1nc2c([nH]1)c(=O)n(C)c(=O)n2Cc1ccco1", "class 0"),
    ("C=CCc1cc(S(=O)(=O)c2ccc(O)c(CC=C)c2)ccc1O", "class 0"),
    ("CCCCNC1CC(C)(C)NC(C)(C)C1", "class 0"),
    ("COc1ccc(N=Nc2cc(C)c(N=Nc3ccc(S(=O)(=O)O)cc3)cc2OC)cc1", "class 0"),
    ("CC(C)C=O", "class 0"),
    ("CCCCCCCC/C=C\\CCCCCCCCO", "class 0"),
    ("O=P(c1ccccc1)(c1ccccc1)c1ccccc1", "class 0"),
    ("C=CCOCC(O)CCl (stereo unspecified)", "class 0"),
    ("CS(=O)(=O)c1ccc([C@@H](CC2CCCC2)C(=O)Nc2cnccn2)cc1Cl", "class 0"),
    ("C[C@@H](C1=C(CCN(C)C)Cc2ccccc21)c1ccccn1", "class 0"),
    ("Cc1onc(-c2c(Cl)cccc2Cl)c1C(=O)Cl", "class 0"),
]

----------
Test: G protein-coupled receptor (GPCR) small molecule agonists, calcium flux assay: HEK293 wild type cell line counter screen (AID 1920065); note: % is set by controls: 0 for no effect and ±100 for the full control effect
Settings: HEK293 WT calcium flux, fluorescence, agonist mode; series mostly up to 57.6 µM
The source made the active and inactive calls. Calls follow the shape of the full dose curve.

# compound, activation
measured = [
    ("C/C=C1/C(=O)C[C@H]2[C@@H]3CCC4=CC(=O)CC[C@]4(C)[C@H]3CC[C@]12C", "inactive"),
    ("c1ccc(OCc2ccc(CCCN3CCOCC3)cc2)cc1", "inactive"),
    ("CN(C)CC[C@@H](c1ccc(Cl)cc1)c1ccccn1", "inactive"),
    ("CCCCCCCCC(=O)OCC(C)OC(=O)CCCCCCCC (stereo unspecified)", "inactive"),
    ("CCCCCCCC/C=C\\CCCCCCCC(=O)N(C)CC(=O)O", "inactive"),
    ("NC(=O)c1cc[n+](CC2=C(C(=O)[O-])N3C(=O)[C@@H](NC(=O)Cc4cccs4)[C@H]3SC2)cc1", "inactive"),
    ("C=CC(=O)Nc1cc2c(Nc3ccc(F)c(Cl)c3)ncnc2cc1OCCCN1CCOCC1", "inactive"),
    ("OC/C=C/c1ccccc1", "inactive"),
    ("C=C(C)C(=O)OCCCCCCCCCCCCCCCCCC", "0.174% [at 11.8 µM] (inactive)"),
    ("C[C@@H]1C[C@H]2[C@@H]3C[C@H](F)C4=CC(=O)C=C[C@]4(C)[C@@]3(F)[C@@H](O)C[C@]2(C)[C@@]1(O)C(=O)CO", "inactive"),
    ("c1cc(OCC2CO2)cc(OCC2CO2)c1 (stereo unspecified)", "inactive"),
]

The measurements presented in this section are drawn from PubChem BioAssay (Tox21).
